Source of measurements: ChEMBL document CHEMBL3885861

- Organism: Rattus norvegicus
- PROTOCOL: Open TG-GATES - Regimen: Daily Repeat
- Type: toxicity, organism-based, Sprague-Dawley
- Set-up: regimen Daily Repeat, gender Male, age 6 weeks
- TEST SETTINGS: in vivo, po, 0 mg/kg, 72 h, tissue Plasma, route gavage, dose level Control, time 3 day
Please respond with reported IP for every item in the list.
Hi! Could you send only the number? It should be in mg/dL, unit omitted.

Query block: # return recorded IP for entry O=C(O)c1cccnc1 [NIACIN]
Result block: 7.7

Query block: Indicate its recorded IP; the compound in question is O=C(N[C@H](CO)[C@H](O)c1ccc([N+](=O)[O-])cc1)C(Cl)Cl [CHLORAMPHENICOL]
Result block: 7.1

Query block: Input CC(=N)S [THIOACETAMIDE] , output reported IP.
Result block: 7.6

Query block: State its IP for this compound: CCc1oc2ccccc2c1C(=O)c1cc(I)c(O)c(I)c1 [BENZIODARONE]
Result block: 7.2

Query block: Note IP for the compound shown: C[C@]12CCC(=O)C=C1CC[C@@H]1[C@@H]2CC[C@@]2(C)[C@H]1CC[C@]2(C)O [METHYLTESTOSTERONE]
Result block: 7.5
